Recorded IC50, one value per entry.
# system_name: membraneous ATPase
# method_description: Inhibition of membraneous ATPase
# stated_conditions: read-out: ED50 (dose causing 50% inhibition of membraneous ATPase)
value_kind: IC50 (nM)

>  <molecule>
C[C@@H]1O[C@@H](O[C@H]2CC[C@@]3(C)[C@H](CC[C@@H]4[C@@H]3CC[C@]3(C)[C@@H](CO)CC[C@]43N)C2)[C@H](O)[C@H](O)[C@H]1O

>  <system_name>
membraneous ATPase

>  <value_kind>
IC50

>  <unit_annotation>
nM

>  <reported_measurement>
0.13

$$$$
>  <molecule>
C[C@H]1O[C@@H](O[C@H]2[C@@H](O)C[C@H](O[C@H]3[C@@H](O)C[C@H](O[C@H]4CC[C@@]5(C)[C@H](CC[C@@H]6[C@@H]5C[C@@H](O)[C@]5(C)[C@@H](C7=CC(=O)OC7)CC[C@]65O)C4)O[C@@H]3C)O[C@@H]2C)C[C@H](O)[C@@H]1O [digoxin, reference compound]

>  <system_name>
membraneous ATPase

>  <value_kind>
IC50

>  <unit_annotation>
nM

>  <reported_measurement>
5.3

$$$$
>  <molecule>
C[C@@H]1O[C@@H](O[C@H]2C[C@@H](O)[C@]3(CO)[C@H]4[C@H](O)C[C@]5(C)[C@@H](C6=CC(=O)OC6)CC[C@]5(O)[C@@H]4CC[C@]3(O)C2)[C@H](O)[C@H](O)[C@H]1O [ouabain, reference compound]

>  <system_name>
membraneous ATPase

>  <value_kind>
IC50

>  <unit_annotation>
nM

>  <reported_measurement>
3.6

$$$$
>  <molecule>
C[C@@H]1O[C@@H](O[C@H]2CC[C@@]3(C)[C@H](CC[C@@H]4[C@@H]3CC[C@]3(C)[C@@H]([C@@H](C)O)CC[C@]43N)C2)[C@H](O)[C@H](O)[C@H]1O

>  <system_name>
membraneous ATPase

>  <value_kind>
IC50

>  <unit_annotation>
nM

>  <reported_measurement>
0.07

$$$$
>  <molecule>
C[C@H](O)[C@H]1CC[C@]2(N)[C@@H]3CC[C@@H]4C[C@@H](O[C@@H]5O[C@@H](C)[C@H](O)[C@@H](O)[C@H]5O)CC[C@]4(C)[C@H]3CC[C@]12C

>  <system_name>
membraneous ATPase

>  <value_kind>
IC50

>  <unit_annotation>
nM

>  <reported_measurement>
0.18

$$$$
